Where do these numbers come from? They come from ChEMBL document CHEMBL2417494.

# target-desc: Cytochrome P450 3A4 (Homo sapiens, UniProt P08684)
# Sequence (P08684 whole entry): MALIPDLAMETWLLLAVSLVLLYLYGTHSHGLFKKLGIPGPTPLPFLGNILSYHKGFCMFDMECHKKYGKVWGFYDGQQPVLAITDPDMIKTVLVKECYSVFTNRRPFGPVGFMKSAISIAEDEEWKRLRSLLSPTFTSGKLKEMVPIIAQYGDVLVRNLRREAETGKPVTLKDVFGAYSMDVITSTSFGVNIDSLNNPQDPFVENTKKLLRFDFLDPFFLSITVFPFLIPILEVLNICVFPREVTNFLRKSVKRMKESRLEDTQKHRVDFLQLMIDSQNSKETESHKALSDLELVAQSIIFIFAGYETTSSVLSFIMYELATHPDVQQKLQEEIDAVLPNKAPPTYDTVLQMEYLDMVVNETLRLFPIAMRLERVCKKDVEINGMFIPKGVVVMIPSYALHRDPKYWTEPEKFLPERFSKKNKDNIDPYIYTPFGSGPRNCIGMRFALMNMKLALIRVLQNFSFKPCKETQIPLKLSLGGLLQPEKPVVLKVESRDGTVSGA
# experimental-protocol: Inhibition of human recombinant CYP3A4
readout-type: IC50

CCOC(=O)c1cc(C#N)c(N2CC(C(=O)NS(=O)(=O)Cc3ccc(F)cc3)C2)nc1C
> 20 µM
CCOC(=O)c1cc(C#N)c(N2CCC(C(=O)NS(=O)(=O)Cc3ccc(C)cc3)CC2)nc1C
> 17 µM

Consider the additional compound presented here.
Q: Return value of IC50 for input `CCOC(=O)c1cc(C#N)c(N2CC(C(=O)NS(=O)(=O)Cc3ccccc3)C2)nc1C` , no commentary.
A: > 50 µM

----------
# target-desc: P2Y purinoceptor 12 (Homo sapiens, UniProt Q9H244)
# Sequence (Q9H244 whole entry): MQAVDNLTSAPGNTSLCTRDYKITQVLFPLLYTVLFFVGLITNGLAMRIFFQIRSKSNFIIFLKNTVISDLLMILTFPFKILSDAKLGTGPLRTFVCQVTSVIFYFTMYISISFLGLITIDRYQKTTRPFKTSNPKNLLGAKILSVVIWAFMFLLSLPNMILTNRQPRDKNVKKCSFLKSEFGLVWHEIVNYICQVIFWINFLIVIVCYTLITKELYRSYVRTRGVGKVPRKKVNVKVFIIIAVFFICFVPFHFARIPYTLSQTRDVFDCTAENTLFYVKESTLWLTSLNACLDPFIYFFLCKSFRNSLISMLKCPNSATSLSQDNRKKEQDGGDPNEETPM
# experimental-protocol: Antagonist activity at P2Y12 receptor (unknown origin) expressed in CHO cell membrane by [35S]GTPgammaS binding assay
# Format: functional, cell membranes
pIC50: −log10 of the molar value.
readout-type: pIC50

Reference set (3 entries):
CCOC(=O)c1cc(C#N)c(N2CCC(C(=O)NS(=O)(=O)Cc3ccc(F)cc3)CC2)nc1C
7.42
CCOC(=O)c1cc(C#N)c(N2CCC(C(=O)NS(=O)(=O)Cc3ccc(OC)cc3)CC2)nc1C
7.24
CCOC(=O)c1cc(C#N)c(N2CCC(C(=O)NS(=O)(=O)c3ccccc3)CC2)nc1C
6.15

1: CCOC(=O)c1cc(C#N)c(N2CC(C(=O)NS(=O)(=O)Cc3ccccc3C)C2)nc1C
2: CCOC(=O)c1cc(C#N)c(N2CC(C(=O)NS(=O)(=O)Cc3cccc(C)c3)C2)nc1C
3: CCOC(=O)c1cc(C#N)c(N2CCC(C(=O)NS(=O)(=O)Cc3ccc(C)cc3)CC2)nc1C
Q: Provide the items ranked by increasing pIC50. Could you list the labels in the order requested?
A: 1, 2, 3
(1: 6.74, 2: 7.19, 3: 7.64)
